System: tubulin heterodimer
Assay: Competitive binding test, [3H]colchicine
Parameters: species or system bovine
Conditions: [3H]colchicine 50 nM
property.name: [3H]Colchicine binding, percent of control without competitor, Mean (%)

>>> result("CC[C@]1(O)C[C@H]2CN(CCc3c([nH]c4ccccc34)[C@@](C(=O)OC)(c3cc4c(cc3OC)N(C=O)[C@H]3[C@@](O)(C(=O)OC)[C@H](OC(C)=O)[C@]5(CC)C=CCN6CC[C@]43[C@@H]65)C2)C1 [Vincristine, reference compound]")
99
>>> result("C[C@H](Nc1c(-c2c(F)cc(OCCCO)cc2F)c(Cl)nc2ncnn12)C(F)(F)F")
98
>>> result("CNCCCOc1cc(F)c(-c2c(Cl)nc3ncnn3c2C2CCCCCC2)c(F)c1.O=C(O)C(F)(F)F")
94
>>> result("CC(=O)O[C@H]1C(=O)[C@@]2(C)[C@H]([C@H](OC(=O)c3ccccc3)[C@]3(O)C[C@H](OC(=O)[C@H](O)[C@@H](NC(=O)c4ccccc4)c4ccccc4)C(C)=C1C3(C)C)[C@]1(OC(C)=O)CO[C@@H]1C[C@@H]2O [Paclitaxel, reference compound]")
93
>>> result("OCCCOc1cc(F)c(-c2c(Cl)nc3ncnn3c2C2CCCCCC2)c(F)c1")
112
>>> result("C[C@H](Nc1c(-c2c(F)cc(OCCCN(C)C)cc2F)c(Br)nc2ncnn12)C(F)(F)F")
126

* * *

System: LOX Human Melanoma
Assay: Human tumor xenograft test, LOX
Type: in vivo, athymic mice
Conditions: LOX, 6 mg/kg IV, days 1, 5, 9, 13
Marks after values point to notes of the source that are not given here.
Reported values of T/C on day 13 for individual entries

>>> result("CNCCCOc1cc(F)c(-c2c(Cl)nc3ncnn3c2N[C@@H](C)C(F)(F)F)c(F)c1.Cl [Example 2a]")
"0.12**"
>>> result("CN(C)CCCOc1cc(F)c(-c2c(Cl)nc3ncnn3c2NCC(F)(F)F)c(F)c1.Cl [Example 4a]")
"0.14**"
>>> result("C[C@H](Nc1c(-c2c(F)cc(OCCCN(C)C)cc2F)c(Cl)nc2ncnn12)C(F)(F)F.Cl [Example 1a]")
"0.07**"

Ask | Find the recorded T/C on day 13 belonging to CNCCCOc1cc(F)c(-c2c(Cl)nc3ncnn3c2NCC(F)(F)F)c(F)c1.Cl [Example 3a] and report it.
Reply | 0.07**

* * *

Test system: S1-M1 cells
Assay: MTS cytotoxicity test with S1-M1 cells (MXR)
Format: cell-based, human
Conditions: Homo sapiens; S1-M1 cells, MTS; read-out: IC50 S1-M1
The following compounds are shown together with reported IC50 values.
Field format: number, assumed nM, no unit text.

>>> result("CC(=O)O[C@H]1C(=O)[C@@]2(C)[C@H]([C@H](OC(=O)c3ccccc3)[C@]3(O)C[C@H](OC(=O)[C@H](O)[C@@H](NC(=O)c4ccccc4)c4ccccc4)C(C)=C1C3(C)C)[C@]1(OC(C)=O)CO[C@@H]1C[C@@H]2O [Paclitaxel, reference compound]")
4.4

Ask | Given the entry C[C@H](Nc1c(-c2c(F)cc(OCCCN(C)C)cc2F)c(Br)nc2ncnn12)C(F)(F)F , what IC50 was observed with S1-M1 cells?
Reply | 84

Ask | GET /values?readout=IC50&system=S1-M1 cells&item= OCCCOc1cc(F)c(-c2c(Cl)nc3ncnn3c2C2CCCCCC2)c(F)c1
Reply | 78

Ask | Param readout = IC50; param system = S1-M1 cells; param query = C[C@H](Nc1c(-c2c(F)cc(OCCCO)cc2F)c(Cl)nc2ncnn12)C(F)(F)F ; response: value
Reply | 91

Ask | What IC50 appears in the records for this compound with S1-M1 cells? C[C@H](Nc1c(-c2c(F)cc(OCCCN(C)C)cc2F)c(Cl)nc2ncnn12)C(F)(F)F.Cl
Reply | 75

* * *

System: HeLa cells
Assay: Cell cycle analysis with HeLa cells
Assay type: cell-based, human
Settings: 18 hr, 30 nM
property.name: Percent in Cell Cycle Phase >4N (%)
The answer is to be given in %; state only the numeric part.

Example molecules with recorded Percent in Cell Cycle Phase >4N:
>>> result("CC[C@]1(O)C[C@H]2CN(CCc3c([nH]c4ccccc34)[C@@](C(=O)OC)(c3cc4c(cc3OC)N(C=O)[C@H]3[C@@](O)(C(=O)OC)[C@H](OC(C)=O)[C@]5(CC)C=CCN6CC[C@]43[C@@H]65)C2)C1 [Vincristine, reference compound]")
4
>>> result("CN(C)CCCOc1cc(F)c(-c2c(Cl)nc3ncnn3c2NCC(F)(F)F)c(F)c1.Cl [Example 4a]")
1

Ask | Reported Percent in Cell Cycle Phase >4N for HeLa cells, given COc1cc2c(c(OC)c1OC)-c1ccc(OC)c(=O)cc1[C@@H](NC(C)=O)CC2 [Colchicine, reference compound] ?
Reply | 3

* * *

// reported Percent in Cell Cycle Phase Apop per item
Test system: HeLa cells
Test: Cell cycle analysis with HeLa cells
Format: cell-based, human
Conditions: 18 hr, 40 nM
Write the value in % as a bare number.

>>> result("CNCCCOc1cc(F)c(-c2c(Cl)nc3ncnn3c2N[C@@H](C)C(F)(F)F)c(F)c1.Cl [Example 2a]")
44
>>> result("CC[C@]1(O)C[C@H]2CN(CCc3c([nH]c4ccccc34)[C@@](C(=O)OC)(c3cc4c(cc3OC)N(C=O)[C@H]3[C@@](O)(C(=O)OC)[C@H](OC(C)=O)[C@]5(CC)C=CCN6CC[C@]43[C@@H]65)C2)C1 [Vincristine, reference compound]")
18

Now let's try a different one.
Ask | Item under review: CN(C)CCCOc1cc(F)c(-c2c(Cl)nc3ncnn3c2NCC(F)(F)F)c(F)c1.Cl [Example 4a] . Reported Percent in Cell Cycle Phase Apop?
Reply | 65

* * *

Test system: HeLa cells
Assay: Cell cycle analysis with HeLa cells
Assay type: cell-based, human
Details: 18 hr, 70 nM
Experimental: HeLa cells are harvested by trypsinization, washed, counted and distributed to wells of 12-well plates at 125,000 cells per well in 2 mL medium. Cells are cultured overnight. […] Cells are continued in culture for 18 hr after compound addition, then cells in each well are harvested (taking care to recover both adherent and non-adherent cells) and processed using the CycleTEST PLUS kit (Becton Dickinson Immunocytometry Systems, San Jose, Calif.). […]
property.name: Percent in Cell Cycle Phase G1 (%)
Response body: numeric value in %, unit text excluded.

Solved entries (count: 3):
>>> result("CNCCCOc1cc(F)c(-c2c(Cl)nc3ncnn3c2N[C@@H](C)C(F)(F)F)c(F)c1.Cl")
6
>>> result("CNCCCOc1cc(F)c(-c2c(Cl)nc3ncnn3c2NCC(F)(F)F)c(F)c1.Cl")
5
>>> result("CN(C)CCCOc1cc(F)c(-c2c(Cl)nc3ncnn3c2NCC(F)(F)F)c(F)c1.Cl")
3

Could you now consider this next molecule?
Ask | Recorded Percent in Cell Cycle Phase G1 for C[C@H](Nc1c(-c2c(F)cc(OCCCN(C)C)cc2F)c(Cl)nc2ncnn12)C(F)(F)F.Cl , please?
Reply | 3

* * *

Measured Percent in Cell Cycle Phase G1, listed per entry.
System: HeLa cells
Assay: Cell cycle analysis with HeLa cells
Format: cell-based, human
Conditions: 18 hr, 50 nM
Experimental: HeLa cells are harvested by trypsinization, washed, counted and distributed to wells of 12-well plates at 125,000 cells per well in 2 mL medium. Cells are cultured overnight. […] Cells are continued in culture for 18 hr after compound addition, then cells in each well are harvested (taking care to recover both adherent and non-adherent cells) and processed using the CycleTEST PLUS kit (Becton Dickinson Immunocytometry Systems, San Jose, Calif.). […]
The answer is to be given in %; state only the numeric part.

>>> result("COc1cc2c(c(OC)c1OC)-c1ccc(OC)c(=O)cc1[C@@H](NC(C)=O)CC2 [Colchicine, reference compound]")
11
>>> result("CNCCCOc1cc(F)c(-c2c(Cl)nc3ncnn3c2N[C@@H](C)C(F)(F)F)c(F)c1.Cl")
5
>>> result("CNCCCOc1cc(F)c(-c2c(Cl)nc3ncnn3c2NCC(F)(F)F)c(F)c1.Cl")
5
>>> result("CN(C)CCCOc1cc(F)c(-c2c(Cl)nc3ncnn3c2NCC(F)(F)F)c(F)c1.Cl")
6

Ask | Report Percent in Cell Cycle Phase G1 for C[C@H](Nc1c(-c2c(F)cc(OCCCN(C)C)cc2F)c(Cl)nc2ncnn12)C(F)(F)F.Cl please.
Reply | 6

* * *

Tested on: tubulin heterodimer
Test: Competitive binding test, [3H]vinblastine
Parameters: species or system bovine
Conditions: [3H]vinblastine 100 nM
property.name: [3H]Vinblastine binding, percent of control without competitor, Mean (%)

>>> result("C[C@H](Nc1c(-c2c(F)cc(OCCCN(C)C)cc2F)c(Cl)nc2ncnn12)C(F)(F)F.Cl [Example 1a]")
12

A = CNCCCOc1cc(F)c(-c2c(Cl)nc3ncnn3c2C2CCCCCC2)c(F)c1.O=C(O)C(F)(F)F [Example 32]
B = CC[C@]1(O)C[C@H]2CN(CCc3c([nH]c4ccccc34)[C@@](C(=O)OC)(c3cc4c(cc3OC)N(C=O)[C@H]3[C@@](O)(C(=O)OC)[C@H](OC(C)=O)[C@]5(CC)C=CCN6CC[C@]43[C@@H]65)C2)C1 [Vincristine, reference compound]
Ask | Which value of [3H]Vinblastine binding, percent of control without competitor, Mean is greater, the one for A or the one for B ? Reply with the label of the item you choose.
Reply | A

I = CC(=O)O[C@H]1C(=O)[C@@]2(C)[C@H]([C@H](OC(=O)c3ccccc3)[C@]3(O)C[C@H](OC(=O)[C@H](O)[C@@H](NC(=O)c4ccccc4)c4ccccc4)C(C)=C1C3(C)C)[C@]1(OC(C)=O)CO[C@@H]1C[C@@H]2O [Paclitaxel, reference compound]
II = C[C@H](Nc1c(-c2c(F)cc(OCCCN3CCOCC3)cc2F)c(Cl)nc2ncnn12)C(F)(F)F.Cl [Example 11a]
Ask | Of the pair I and II , name the member with the lesser recorded [3H]Vinblastine binding, percent of control without competitor, Mean. Provide the label of your selected option as the answer.
Reply | II
